- Assayed System: human A3AR (Homo sapiens, UniProt P0DMS8)
- Construct: expressed in transfected cells
- Sequence (P0DMS8 whole entry): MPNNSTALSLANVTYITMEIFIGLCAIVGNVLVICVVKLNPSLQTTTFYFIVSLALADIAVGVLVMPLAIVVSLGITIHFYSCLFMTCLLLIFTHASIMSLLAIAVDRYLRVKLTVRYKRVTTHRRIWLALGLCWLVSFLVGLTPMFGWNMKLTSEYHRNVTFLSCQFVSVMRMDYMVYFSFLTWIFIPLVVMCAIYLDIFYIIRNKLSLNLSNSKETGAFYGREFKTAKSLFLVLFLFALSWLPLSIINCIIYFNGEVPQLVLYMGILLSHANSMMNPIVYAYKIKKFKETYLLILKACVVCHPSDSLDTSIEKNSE
- Experiment Summary: LOPAC library primary screen: single concentration (10 μM) inhibition of 25 nM CA200645 binding, PHERAstar FS
Structures can show the parent of a compound that is named as a salt.
Endpoint Name: % 25 nM CA200645 binding (%)
Provide the reading as a plain figure in %.

The reported value for CN(N=O)c1ccc(O)c(O)c1 in terms of % 25 nM CA200645 binding is 87.0

The reported value for Cn1cnc2c(NCc3ccccc3)nc(NCCO)nc21 in terms of % 25 nM CA200645 binding is 97.0

The reported value for COc1ccc(C(=O)N2CCCC2=O)cc1 in terms of % 25 nM CA200645 binding is 95.9

The reported value for CCN(CC)CCCC(C)Nc1c2ccc(Cl)cc2nc2ccc(OC)cc12 (stereo not drawn) [Quinacrine dihydrochloride] in terms of % 25 nM CA200645 binding is 98.2

The reported value for CC[N+](CC)(CC)CCOc1ccc(/C=C/c2ccccc2)cc1 in terms of % 25 nM CA200645 binding is 106.9

The reported value for C1COC(NC(C2CC2)C2CC2)=N1 [Rilmenidine hemifumarate] in terms of % 25 nM CA200645 binding is 100.9

The reported value for NCC(=O)NCCC(c1ccccc1)c1ccccc1 [N-(3,3-Diphenylpropyl)glycinamide] in terms of % 25 nM CA200645 binding is 98.7

The reported value for CN(C)CC[C@@H](c1ccc(Cl)cc1)c1ccccn1 [(+)-Chlorpheniramine maleate] in terms of % 25 nM CA200645 binding is 96.8

The reported value for NS(=O)(=O)c1cc2c(cc1Cl)NCNS2(=O)=O [Hydrochlorothiazide] in terms of % 25 nM CA200645 binding is 95.6
